# System: HPPD polypeptides (wild-type SEQ ID NO:1 and mutants)
# test.parameters: in the presence of diketonitrile (DKN), 60 μM inhibitor, high substrate concentration; total change in signal normalized to no inhibitor

{"molecule": "24 (protein, mutant HPPD polypeptide) MADLYENPMGLMGFEFIEFASPTPGTLEPIFEIMGFTKVATHRSKNVHLYRQGEINLILNNEPNSIASYFAAEHGPSVCGMAFRVKDSQKAYNRALELGAQPIHIDTGPMELNLPAIKGIGGAPLYLIDRFGEGSSIYDIDFVYLEGVERNPVGAGLKVIDHLTHNVYRGRMVYWANFYEKLFNFREARYFDIKGEYTGLTSKAMSAPDGMIRIPLNEESSKGAGQIEEFLMQFNGEGIQHVAFLTDDLVKTWDALKKIGMRFMTAPPDTYYEMLEGRLPDHGEPVDQLQARGILLDGSSVEGDKRLLLQIFSETLMGPVFFEFIQRKGDDGFGPHSFKVLFESVERDQVRRGVLTAD", "Residual turnover": "n.i."}
{"molecule": "19 (protein, mutant HPPD polypeptide) MADLYENPMGLMGFEFIEFASPTPGTLEPIFEIMGFTKVATHRSKNVHLYRQGEINLILNNEPNSIASYFAAEHGPSVCGMAFRVKDSQKAYNRALELGAQPIHIDTGPMELNLPAIKGIGGAPLYLIDRFGEGSSIYDIDFVYLEGVERNPVGAGLKVIDHLTHNVYRGRMVYWANFYEKLFNFREARYFDIKGEYTGLTSKAMSAPDGMIRIPLNEESSKGAGQIEEFLMQFNGEGIQHVAFLTDDLVKTWDALKKIGMRFRTAPGDEYYEMLEGRLPDHGEPVDQLQARGILLDGSSVEGDKRLLLQIFSETLMGPVFFEFIQRKGHDGFGPDSFKVLFESVERDQVRRGVLTAD", "Residual turnover": "n.i"}
{"molecule": "14 (protein, mutant HPPD polypeptide) MADLYENPMGLMGFEFIEFASPTPGTLEPIFEIMGFTKVATHRSKNVHLYRQGEINLILNNEPNSIASYFAAEHGPSVCGMAFRVKDSQKAYNRALELGAQPIHIDTGPMELNLPAIKGIGGAPLYLIDRFGEGSSIYDIDFVYLEGVERNPVGAGLKVIDHLTHNVYRGRMVYWANFYEKLFNFREARYFDIKGEYTGLTSKAMSAPDGMIRIPLNEESSKGAGQIEEFLMQFNGEGIQHVAFLTDDLVKTWDALKKIGMRFMTAPPDTYYEMLEGRLPDHGEPVDQLQARGILLDGSSVEGDKRLLLQIFSETLMGPVFFEFIQRKGHDGFGPDSFKVLFESVERDQVRRGVLTAD", "Residual turnover": "n.i"}
{"molecule": "29 (protein, mutant HPPD polypeptide) MADLYENPMGLMGFEFIEFASPTPGTLEPIFEIMGFTKVATHRSKNVHLYRQGEINLILNNEPNSIASYFAAEHGPSVCGMAFRVKDSQKAYNRALELGAQPIHIDTGPMELNLPAIKGIGGAPLYLIDRFGEGSSIYDIDFVYLEGVERNPVGAGLKVIDHLTHNVYRGRMVYWANFYEKLFNFREARYFDIKGEYTGLTSKAMSAPDGMIRIPLNEESSKGAGQIEEFLMQFNGEGIQHVAFLTDDLVKTWDALKKIGMRFMTAPSDSYYEMLEGRLPDHGEPVDQLQARGILLDGSSVEGDKRLLLQIFSETLMGPVFFEFIQRKGDDGFGPHSFKVLFESVERDQVRRGVLTAD", "Residual turnover": "n.i."}
